Test system: HCC 2998
Assay: NCI tumour cell line growth inhibition, 48 h
Calls of active or inactive are those of the source. Rule as the data show it: active = GI50 up to about 1.1 µM and inactive = higher.
Returns: one label drawn from 1.0 for active, 0.0 for inactive

O=C(O)C(=O)/C=C\c1ccc(Cl)cc1 = 0.0
OCC(O)C(O)C(O)C1SC(c2ccccc2)=NN1c1ccccc1 (centres undefined) = 0.0
Cc1[nH]c2ccccc2c1C1Cc2ccccc2N1C(=O)/C=C/C(=O)O (centres undefined) = 0.0

q: Field: outcome | Entry: N#Cc1c(N)oc2cc3c(C#N)c(N)oc3cc12
a: 0.0

q: Called result for CC(=O)O[C@H]1C(=O)[C@@]2(C)[C@H]([C@H](OC(=O)C3CCCCC3)[C@]3(O)C[C@H](OC(=O)[C@H](O)[C@@H](NC(=O)OC(C)(C)C)c4ccccc4)C(C)=C1C3(C)C)[C@]1(OC(C)=O)CO[C@@H]1C[C@@H]2O
a: 1.0

q: Call for entry CCN1C(=O)C/C(=C\C(C)=O)Nc2ccccc21 :
a: 0.0

q: Recorded call for COc1ccc(C2C(C#N)=C(O)NC(O)=C2C#N)cc1OC ?
a: 0.0
